This collection of values is drawn from PubChem BioAssay AID2685.

Give measured cell number change for each item. Keep answers brief.
- TEST_SUMMARY: qHTS Assay for Lipid Storage Modulators in Drosophila S3 Cells;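 further: cells counted by Cell Tracker Red CMTPX staining in the red channel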
- EXPERIMENTAL_PARAMETERS: BODIPY lipid droplet fluorescence, 18-24 h, cells fed with added oleic acid; measured here: cell count max response
In all, about 320,000 compounds went through this assay and about 2,100 (0.66%) were called active. Roughly 53% stayed inconclusive and do not appear here. The sample as a whole holds a higher share of actives than the screen did.
One number for each entry, in %.

Some compounds with recorded cell number change:
- COMPOUND: "COc1ccc(/C=C2\\SC(=S)N(CCCC(=O)N3CCN(C)CC3)C2=O)cc1"
  MEASURED_METRIC: "cell number change"
  MEASUREMENT: -9.52
- COMPOUND: "CN(C(=O)CCN1C(=O)/C(=C/c2ccccc2)SC1=S)C1CCS(=O)(=O)C1 (stereo not given)"
  MEASURED_METRIC: "cell number change"
  MEASUREMENT: 10.8
- COMPOUND: "COc1ccc(C(=O)N/N=C(\\C)CC(=O)Nc2ccc3c(c2)OCCO3)c(OC)c1"
  MEASURED_METRIC: "cell number change"
  MEASUREMENT: 14.3

Provide cell number change values for the following items, in order.
1. O=C(CCCN1C(=O)/C(=C/c2ccccc2)SC1=S)N1CCOCC1
2. COC(=O)c1cn(NC(=O)c2ccncc2)c(=O)c2ccccc12
3. COc1ccccc1C(=O)N/N=C(\C)CC(=O)Nc1ccc2c(c1)OCCO2

1: 15.4; 2: -18.7; 3: 22.4

Provide cell number change values for the following items, in order.
1. CN1CCN(C(=O)CCCN2C(=O)/C(=C/c3ccccc3)SC2=S)CC1
2. COc1cc(/C=C2\SC(=S)N(CC(=O)O)C2=O)ccc1OS(=O)(=O)c1ccc(C)cc1
3. COc1ccc(/C=C2\SC(=S)N(CCC(=O)N3CCCCC3CCO)C2=O)cc1 (stereo not given)
4. C/C(CC(=O)Nc1ccc2c(c1)OCCO2)=N\NC(=O)c1ccccc1F

3.91
-2.94
-3.06
8.06

* * *

- TEST_SUMMARY: qHTS Assay for Lipid Storage Modulators in Drosophila S3 Cells;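 further: cells counted by Cell Tracker Red CMTPX staining in the red channel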
- EXPERIMENTAL_PARAMETERS: BODIPY lipid droplet fluorescence, 18-24 h, cells fed with added oleic acid; measured here: cell count max response
The whole screen tested about 320,000 compounds, of which about 2,100 (0.66%) were called active. Inconclusive results (about 53%) are left out. The entries come from a sample that favours actives as a whole.
Give measured cell number change for each item. Keep answers brief.
Numbers only, in %.

Some compounds with recorded cell number change:
- COMPOUND: "CCc1ccc(CNC(=O)C2CCN(S(=O)(=O)N3CC(C)CC(C)C3)CC2)cc1 (stereo not given)"
  cell number change (%): 14.3
- COMPOUND: "O=C(O)CCn1c2ccccc2c2nc3ccccc3nc21"
  cell number change (%): -11.8
- COMPOUND: "CCC1Oc2ccccc2N(CC(=O)NC2CCCCC2C)C1=O (stereo not given)"
  cell number change (%): -4.58
- COMPOUND: "CN1CCC(N(C)C(=S)NC(=O)C23CC4CC(CC(C4)C2)C3)CC1"
  cell number change (%): -1.68
- COMPOUND: "COc1ccc(N2CCN(C(=S)Nc3ccc(C)cc3)CC2)cc1"
  cell number change (%): 11.6
- COMPOUND: "COc1ccc(N=C2S/C(=C\\c3ccco3)C(=O)N2CC(C)C)cc1"
  cell number change (%): -0.418
- COMPOUND: "CCC1Oc2ccccc2N(CC(=O)NC2CCCCC2)C1=O (stereo not given)"
  cell number change (%): 2.82
- COMPOUND: "Cc1ccc(NC(=O)c2c(O)c3ccccc3n(C)c2=O)nc1"
  cell number change (%): -15.8

Provide cell number change values for the following items, in order.
1. Cc1cccc(C2NC(c3cccc(C)c3)C([N+](=O)[O-])C(C)(C)C2[N+](=O)[O-])c1 (stereo not given)
2. CC1(C)C([N+](=O)[O-])C(c2ccc(F)cc2)NC(c2ccc(F)cc2)C1[N+](=O)[O-] (stereo not given)

1: 3.3; 2: 2.48
